B1: Ankyrin repeat and SAM domain-containing protein 6, residues 774 to 836; numbered along this chain, Q68DC2 (parent)
chain: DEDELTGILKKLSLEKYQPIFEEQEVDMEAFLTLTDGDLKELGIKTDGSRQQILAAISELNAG

Variants of: B1
PROTOCOL_DESCRIPTION: abundance fitness (aPCA) (normalised: wild type 0, dead -1); higher = more abundant; growth selection in yeast, the domain comes from the species named
RUN_PARAMETERS: Homo sapiens
Rule: abundance fitness of -0.3 or more gives Y; anything lower gives N.

Worked cases, answers included:
[
  {
    "MUTATION_LIST": "L39G",
    "ASSIGNED_LABEL": "N"
  },
  {
    "MUTATION_LIST": "Q18T",
    "ASSIGNED_LABEL": "Y"
  },
  {
    "MUTATION_LIST": "A56D",
    "ASSIGNED_LABEL": "Y"
  },
  {
    "MUTATION_LIST": "A55C",
    "ASSIGNED_LABEL": "Y"
  },
  {
    "MUTATION_LIST": "E15G",
    "ASSIGNED_LABEL": "N"
  }
]

Does the reported abundance fitness for `L12M` fall at or above the -0.3 mark?
Y

Cool, now `L12C`
Y

Cool, now `Q51Y`
N

From: the Human Domainome abundance scans (Beltran et al. 2025)
